Biological target: NLRP3 (Homo sapiens, UniProt Q96P20)
Construct: Seed THP-1 cells (25,000 cells/well) containing 1.0 μg/ml LPS in 40 μl of RPMI medium; host or cells: THP-1 cells
Sequence (Q96P20 whole entry): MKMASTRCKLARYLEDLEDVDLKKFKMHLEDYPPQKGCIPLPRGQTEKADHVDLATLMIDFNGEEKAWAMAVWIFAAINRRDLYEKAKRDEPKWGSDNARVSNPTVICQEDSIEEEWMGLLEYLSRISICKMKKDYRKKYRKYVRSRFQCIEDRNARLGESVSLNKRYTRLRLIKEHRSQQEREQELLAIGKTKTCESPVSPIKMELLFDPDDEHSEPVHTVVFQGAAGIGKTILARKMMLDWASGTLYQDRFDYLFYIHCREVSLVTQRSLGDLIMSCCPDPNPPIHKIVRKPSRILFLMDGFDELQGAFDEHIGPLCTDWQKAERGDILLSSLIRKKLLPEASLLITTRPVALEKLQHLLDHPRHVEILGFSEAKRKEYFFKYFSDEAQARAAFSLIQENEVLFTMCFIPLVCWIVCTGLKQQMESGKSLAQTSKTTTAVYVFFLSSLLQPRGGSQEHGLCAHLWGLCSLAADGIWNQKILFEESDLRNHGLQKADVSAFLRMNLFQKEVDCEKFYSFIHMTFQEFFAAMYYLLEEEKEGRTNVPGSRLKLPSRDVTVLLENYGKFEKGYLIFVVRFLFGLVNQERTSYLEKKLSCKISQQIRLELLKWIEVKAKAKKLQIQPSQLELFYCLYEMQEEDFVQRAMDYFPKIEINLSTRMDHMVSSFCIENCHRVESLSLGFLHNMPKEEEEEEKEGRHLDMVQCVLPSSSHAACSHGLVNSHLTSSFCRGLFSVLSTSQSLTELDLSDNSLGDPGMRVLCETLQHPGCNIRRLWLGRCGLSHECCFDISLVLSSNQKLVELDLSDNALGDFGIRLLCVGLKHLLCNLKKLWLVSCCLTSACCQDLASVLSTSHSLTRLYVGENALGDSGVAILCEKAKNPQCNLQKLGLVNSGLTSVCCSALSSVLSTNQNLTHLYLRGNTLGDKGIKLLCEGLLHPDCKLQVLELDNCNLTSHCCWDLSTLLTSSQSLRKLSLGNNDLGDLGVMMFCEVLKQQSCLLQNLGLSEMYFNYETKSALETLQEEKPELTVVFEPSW
Test: THP-1 Cells Pyroptosis Assay
Format: cell-based
Settings: THP-1 cells with 1.0 μg/ml LPS; compound 3 hours; nigericin 5 μM 1 hr; resazurin readout
IC50 under 20 nM gets 1 (yes), anything at or over 20 nM gets 0 (no).

Below are worked cases with known answers.
{"Compound": "Cc1cc(Cl)cc(O)c1-c1ccc2oc(N[C@@H]3CCCN(C[C@@H]4CC[C@H]4O)C3)nc2n1 (racemic) [Example 118A]", "Class": "0 (no)"}
{"Compound": "CCN1CCC[C@@H](Nc2nc3nc(-c4c(C)cc(Cl)cc4O)cnc3o2)C1", "Class": "1 (yes)"}
{"Compound": "Cc1cc(C#N)cc(O)c1-c1ccc2oc(NC3CCCN4CCCC34)nc2n1 (single isomer, unassigned) [Example 139B]", "Class": "0 (no)"}
{"Compound": "Cc1cc(F)cc(O)c1-c1ccc2oc(N[C@@H]3CCCN(C)C3)nc2n1", "Class": "1 (yes)"}
{"Compound": "CCN1CCC[C@@H](Nc2nc3nc(-c4c(O)cc(C#N)cc4COC)ccc3o2)C1", "Class": "1 (yes)"}

Ask: Please state whether IC50 is below 20 nM for CCN1C[C@H](O)C[C@@H](Nc2nc3nc(-c4c(C)cc(C#N)cc4O)ccc3o2)C1
Reply: 1 (yes)

Ask: Please state whether IC50 is below 20 nM for CCN1CCC[C@@H](Nc2nc3nc(-c4c(C)cc(OC(F)F)cc4O)ccc3o2)C1
Reply: 1 (yes)

Ask: Please state whether IC50 is below 20 nM for CCN1CCC[C@@H](Nc2nc3nc(-c4c(O)cc(F)cc4Cl)ccc3o2)C1
Reply: 1 (yes)

Ask: Please state whether IC50 is below 20 nM for Cc1cc(Cl)cc(O)c1-c1ccc2oc(N[C@@H]3CCCN(CCO)C3)nc2n1
Reply: 1 (yes)

Ask: Please state whether IC50 is below 20 nM for Cc1cc(C(F)(F)F)cc(O)c1-c1ccc2oc(NC3CCCC(O)C3)nc2n1 (stereo not drawn)
Reply: 0 (no)

Ask: Please state whether IC50 is below 20 nM for Cc1cc(Cl)cc(O)c1-c1cc(N2CCCC2=O)c2oc(N[C@@H]3CCCN(C)C3)nc2n1 (racemic)
Reply: 1 (yes)

Ask: Please state whether IC50 is below 20 nM for CCN1CCC2CCN(c3nc4nc(-c5c(C)cc(C#N)cc5O)ccc4o3)C2C1 (single isomer, unassigned) [Example 72A]
Reply: 1 (yes)

Ask: Please state whether IC50 is below 20 nM for Cc1cc(C(F)(F)F)cc(O)c1-c1ccc2oc(N3CCO[C@H]4CNC[C@@H]43)nc2n1 [Example 64B]
Reply: 1 (yes)

Ask: Please state whether IC50 is below 20 nM for CN1CCC[C@@H](Nc2nc3nc(-c4c(O)cc(F)cc4C(F)(F)F)ccc3o2)C1
Reply: 1 (yes)

Ask: Please state whether IC50 is below 20 nM for Cc1cc(C(F)(F)F)cc(O)c1-c1cc(C(C)O)c2oc(N[C@@H]3CCCN(C)C3)nc2n1 (stereo partly drawn)
Reply: 0 (no)

Ask: Please state whether IC50 is below 20 nM for Cc1cc(C(F)(F)F)cc(O)c1-c1ccc2oc(NC3CCCOC3)nc2n1 (racemic)
Reply: 0 (no)

Ask: Please state whether IC50 is below 20 nM for Cc1cc(C(F)(F)F)cc(O)c1-c1ccc2oc(NC34CCC(CC3)N(C)C4)nc2n1
Reply: 0 (no)

Ask: Please state whether IC50 is below 20 nM for CNC1CCCN(c2nc3nc(-c4c(C)cc(C(F)(F)F)cc4O)ccc3o2)C1 (racemic)
Reply: 0 (no)

Ask: Please state whether IC50 is below 20 nM for Cc1cc(C#N)cc(O)c1-c1ccc2oc(N[C@@H]3CCCN(CCO)C3)nc2n1
Reply: 1 (yes)

Ask: Please state whether IC50 is below 20 nM for Cc1cc(C(F)(F)F)cc(O)c1-c1ccc2oc(N3CCC(CO)CC3)nc2n1
Reply: 0 (no)

Ask: Please state whether IC50 is below 20 nM for CCN1CC2OCCN(c3nc4nc(-c5c(C)cc(C#N)cc5O)ccc4o3)C2C1 (stereo not drawn)
Reply: 0 (no)

Ask: Please state whether IC50 is below 20 nM for CCN1C[C@@H](O)C[C@@H](Nc2nc3nc(-c4c(C)cc(C(F)(F)F)cc4O)ccc3o2)C1
Reply: 1 (yes)

Ask: Please state whether IC50 is below 20 nM for Cc1cc(C#N)cc(O)c1-c1ccc2oc(N[C@@H]3CCC[C@H]3N(C)C)nc2n1
Reply: 1 (yes)

Ask: Please state whether IC50 is below 20 nM for Cc1cc(C(F)F)cc(O)c1-c1ccc2oc(N[C@@H]3CCCN(C)C3)nc2n1
Reply: 1 (yes)

Source listed as patent US20240279237A1.
